Each record here notes measured Post-emergence action against ALOMY in %.
# Tested on: ALOMY
# assay: Herbicidal post-emergence action 1a (greenhouse pots, visual rating)
# Type: in vivo, Alopecurus myosuroides
# test-settings: Dosage 80 g/ha; rated visually about 3 weeks after treatment; 100% = plants have died, 0% = like control plants
Answer with the value and then the unit.

- COC(=O)[C@@H](C)Oc1nn(-c2cnccn2)c(-c2cccc(F)c2)c1Br [Example I-20]: 80%
- CCOC(=O)COc1nn(-c2cnccn2)c(-c2cncc(F)c2)c1Br [Example I-90]: 80%

Asked: ALOMY / Post-emergence action against ALOMY in % / COC(=O)C(C)Oc1nn(-c2cnccn2)c(-c2ccnc(F)c2)c1Cl (racemic) [Example I-05] : value?
Given back: 100%

Asked: Next record, please: COC(=O)[C@@H](C)Oc1nn(-c2cnccn2)c(-c2cncc(F)c2)c1Cl [Example I-95]
Given back: 100%

The values you see were collected from patent US20230167088A1.
